TESTED_SYSTEM: CB2R (Homo sapiens)
Sequence (P34972 whole entry): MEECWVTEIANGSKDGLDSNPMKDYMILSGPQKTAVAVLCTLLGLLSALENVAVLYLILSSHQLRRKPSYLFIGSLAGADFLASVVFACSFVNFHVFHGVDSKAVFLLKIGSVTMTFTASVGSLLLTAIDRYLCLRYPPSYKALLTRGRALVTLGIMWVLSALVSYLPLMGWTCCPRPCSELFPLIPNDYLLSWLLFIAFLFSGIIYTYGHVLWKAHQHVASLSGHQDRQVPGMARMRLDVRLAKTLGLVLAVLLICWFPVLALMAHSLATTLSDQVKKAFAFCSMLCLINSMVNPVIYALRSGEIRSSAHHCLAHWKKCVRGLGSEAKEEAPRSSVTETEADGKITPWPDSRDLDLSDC
ASSAY_PROCEDURE: CB2R radioligand binding competition ([3H]CP55,940)
Design: expressed in transfected cells; host or cells: HEK-293T (HEK-CB2 cell line)
APPLIED_CONDITIONS: displacement of [3H]CP 55,940, membranes of HEK-293T cells, n = 3
Entries annotated with measured pKi
# reply with the number alone; pKi is -log10 of concentration in mol/L

Here's what some known entries look like.
{"columns": ["COMPOUND", "pKi"],
 "data": [
  ["NC(=O)[C@H]1CCCCN1C(=O)c1nn(CC2CCCCC2)c2ccccc12 [18n]", 6.95],
  ["NC(=O)[C@H]1CCCCN1C(=O)c1nn(CCCCCF)c2ccccc12 [18l]", 6.84],
  ["CCc1c(C(=O)NN2CCCCC2)nn(-c2ccc(Cl)cc2Cl)c1-c1ccc(Br)cc1 [Surinabant, reference compound]", 6.40],
  ["CCCCCn1cc(C(=O)N2CCCC[C@@H]2C(=O)OC)c2ccccc21 [16b]", 6.56]
]}

Here is another compound to look at.
Ask: Form field: reported pKi of COC(=O)[C@H]1CCCCN1C(=O)c1cn(Cc2ccc(F)cc2)c2ccccc12 [16h]
Result: 6.96

----------
TESTED_SYSTEM: CB1R (Homo sapiens)
Sequence (P21554 whole entry): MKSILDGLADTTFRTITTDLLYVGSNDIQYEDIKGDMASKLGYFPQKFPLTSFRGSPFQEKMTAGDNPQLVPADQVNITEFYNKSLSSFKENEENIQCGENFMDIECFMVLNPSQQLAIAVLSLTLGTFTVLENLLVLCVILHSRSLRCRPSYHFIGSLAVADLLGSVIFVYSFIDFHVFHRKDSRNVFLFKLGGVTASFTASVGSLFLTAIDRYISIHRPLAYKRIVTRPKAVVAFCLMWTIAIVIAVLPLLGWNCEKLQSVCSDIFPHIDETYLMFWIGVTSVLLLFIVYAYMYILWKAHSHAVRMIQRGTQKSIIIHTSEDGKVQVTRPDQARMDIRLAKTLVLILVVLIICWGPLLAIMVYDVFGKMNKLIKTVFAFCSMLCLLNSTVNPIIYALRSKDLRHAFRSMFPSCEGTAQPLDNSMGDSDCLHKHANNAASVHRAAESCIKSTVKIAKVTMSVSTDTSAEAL
ASSAY_PROCEDURE: CB1R radioligand binding competition ([3H]CP55,940)
Design: host or cells: CHO-CB1 C3 cell line
APPLIED_CONDITIONS: percentage displacement of specific [3H]CP 55,940 binding at 1 μM, n = 2
Entries annotated with measured CB1R % at 1 μM
Give the value, in units of %, as a plain number.

Here's what some known entries look like.
{"columns": ["COMPOUND", "RESULT_UNITS", "CB1R % at 1 μM"],
 "data": [
  ["CCCCCn1nc(C(=O)N2CCCC[C@@H]2C(=O)OC)c2ccccc21 [16j]", "%", 3],
  ["NC(=O)[C@H]1CCCCN1C(=O)c1nn(CCCCCF)c2ccccc12 [18l]", "%", 3]
]}

Ask: // fetch CB1R (Homo sapiens) CB1R % at 1 μM for NC(=O)[C@@H]1CCCN1C(=O)c1nn(CC2CCCCC2)c2ccccc12 [17m]
Result: 1

Ask: // fetch CB1R (Homo sapiens) CB1R % at 1 μM for NC(=O)[C@H]1CCCCN1C(=O)c1cn(CCCCCF)c2ccccc12 [18d]
Result: 15

Ask: // fetch CB1R (Homo sapiens) CB1R % at 1 μM for COC(=O)[C@H]1CCCCN1C(=O)c1nn(CCCCCF)c2ccccc12 [16l]
Result: 5

Ask: // fetch CB1R (Homo sapiens) CB1R % at 1 μM for NC(=O)[C@H]1CCCCN1C(=O)c1nn(CC2CCCCC2)c2ccccc12 [18n]
Result: 26

Ask: // fetch CB1R (Homo sapiens) CB1R % at 1 μM for CCCCCn1cc(C(=O)N2CCCC[C@H]2C(N)=O)c2ccccc21 [18a]
Result: 3

----------
TESTED_SYSTEM: CB2R (Homo sapiens)
ASSAY_PROCEDURE: CB2R radioligand binding competition ([3H]CP55,940)
Design: expressed in transfected cells; host or cells: HEK-293T (HEK-CB2 cell line)
APPLIED_CONDITIONS: displacement of [3H]CP 55,940, membranes of HEK-293T cells, n = 3
Entries annotated with measured Ki
Give the value, in units of nM, as a plain number.

Here's what some known entries look like.
{"columns": ["COMPOUND", "Ki / nM"],
 "data": [
  ["CCCCCn1nc(C(=O)N2CCC[C@@H]2C(=O)OC)c2ccccc21 [15j]", 208],
  ["NC(=O)[C@H]1CCCCN1C(=O)c1cn(Cc2ccc(F)cc2)c2ccccc12 [18h]", 207],
  ["NC(=O)[C@@H]1CCCCN1C(=O)c1cn(CCCCCF)c2ccccc12 [18c]", 132],
  ["COC(=O)[C@@H]1CCCN1C(=O)c1nn(CCCCCF)c2ccccc12 [15k]", 41.9],
  ["COC(=O)[C@H]1CCCN1C(=O)c1cn(Cc2ccc(F)cc2)c2ccccc12 [15h]", 599],
  ["COC(=O)[C@H]1CCCCN1C(=O)c1nn(CCCCCF)c2ccccc12 [16l]", 127]
]}

Ask: Form field: reported Ki of NC(=O)[C@H]1CCCCN1C(=O)c1nn(Cc2ccc(F)cc2)c2ccccc12 [18p]
Result: 120

Ask: Form field: reported Ki of COC(=O)[C@H]1CCCCN1C(=O)c1cn(CC2CCCCC2)c2ccccc12 [16f]
Result: 93.1

Ask: Form field: reported Ki of COC(=O)[C@H]1CCCCN1C(=O)c1nn(Cc2ccc(F)cc2)c2ccccc12 [16p]
Result: 48.4

Ask: Form field: reported Ki of CCCCCn1cc(C(=O)N2CCCC[C@H]2C(=O)OC)c2ccccc21 [16a]
Result: 114

Ask: Form field: reported Ki of NC(=O)[C@@H]1CCCCN1C(=O)c1nn(Cc2ccc(F)cc2)c2ccccc12 [18o]
Result: 54.6

Ask: Form field: reported Ki of COC(=O)[C@@H]1CCCCN1C(=O)c1nn(Cc2ccc(F)cc2)c2ccccc12 [16o]
Result: 4.1

Origin of the recorded values: paper PMC12406204
